Test target: Hexose transporter 1 (Plasmodium falciparum) (UniProt O97467)
Experimental details: ST_JUDE_LEISH: Cytotoxicity at 2uM final concentration against transgenic Leishmania Mexicana promastigotes LmPfHT that are glucose transport deficient and complemented with the Plasmodium falciparum hexose transporter. Activity is measured by DNA content using SYBR green in vitro
Format: functional
// values below are reported inhibition
Answer in %, number only, no unit symbol.

Example compounds with recorded inhibition:
>>> print(df.to_string())
                                   compound  parameter_measured  readout_number
0  CCCS(=O)(=O)c1nc(S(=O)(=O)c2ccc(Cl)cc2)c(N2CCCCC2)s1          inhibition            0.19
1  CC[C@H](C)CNC(=O)c1cncc(-c2ccc(CNC3CCCC3)cc2)c1          inhibition            1.43

Hey, Hexose transporter 1 (Plasmodium falciparum) (UniProt O97467) data for "Cc1cc(Nc2ccc3c(c2)CCC3)n2ncnc2n1" : inhibition came out at 0.55

For the compound "COc1ccc2c(CCNc3nc(SC)ncc3C(=O)NCCc3ccc(F)cc3)c[nH]c2c1" , the measured inhibition on Hexose transporter 1 (Plasmodium falciparum) (UniProt O97467) was 0.58

Lab entry: Hexose transporter 1 (Plasmodium falciparum) (UniProt O97467) assay, compound COc1ccc2cc(-c3nc(-c4c(Cl)cccc4Cl)[nH]c3-c3ccnc(NCCCN4CCCCC4C)c3)ccc2c1 (stereo not drawn) , inhibition = -0.07

Assay Hexose transporter 1 (Plasmodium falciparum) (UniProt O97467), sample "N#Cc1ccc2[nH]c(-c3ccccc3)nc2c1" , inhibition read: 6.06

Param item: "O=C(NCc1cccc(F)c1)Nc1ccc(-c2cccc(-c3nc4cc(F)ccc4[nH]3)c2)cc1" ; param system: Hexose transporter 1 (Plasmodium falciparum) (UniProt O97467); output inhibition: 1.08

Record "O=C(Nc1ccccc1)Nc1cccc(-c2cccc(-c3nc4cc(F)ccc4[nH]3)c2)c1" / Hexose transporter 1 (Plasmodium falciparum) (UniProt O97467), inhibition recorded as 2.61

Note to self: inhibition of "O=C(/C=C/c1ccc(Cl)c(Cl)c1)N1CCN(C(=O)Nc2cccc(C(F)(F)F)c2)CC1" with Hexose transporter 1 (Plasmodium falciparum) (UniProt O97467) was 4.67

Log: Hexose transporter 1 (Plasmodium falciparum) (UniProt O97467), compound "Cc1cccc2nc(-c3ccc(-c4cccc(CN5CCN(c6ccc(C#N)cn6)CC5)c4)s3)[nH]c12" , inhibition = -1.69

Known value: Hexose transporter 1 (Plasmodium falciparum) (UniProt O97467) inhibition of the compound "Cc1cc(NC2CCN(CC3CCCCC3)CC2)nc(Nc2ccccc2Cl)n1" equals 6.27

Let me check: "Cc1ccc(OCC2CCN(c3ncc(C(=O)NC4CC4)cc3Cl)CC2)cc1" , system Hexose transporter 1 (Plasmodium falciparum) (UniProt O97467), measured inhibition is -2.55

----------
# reported inhibition; entries follow
Test target: Solute carrier family 2, facilitated glucose transporter member 1 (Homo sapiens)
Experimental details: ST_JUDE_LEISH: Cytotoxicity at 2uM final concentration against transgenic Leishmania Mexicana promastigotes LmGLUT1 that are glucose transport deficient and complemented with the human glucose transporter GLUT1. Activity is measured by DNA content using SYBR green in vitro
Assay type: functional
Only the number, expressed in %, is required.

// worked examples, inhibition included
>>> df
                                   compound  readout_number
0  CCOC(=O)c1cn(CC)c2cc(N(C)CCc3ccc(OC)c(OC)c3)c(F)cc2c1=O            2.15
1  O=C(Nc1ccc(-c2nc3ccccc3[nH]2)cc1)c1ccc(-c2cccc([N+](=O)[O-])c2)o1           -1.84
2  NC(=O)c1cnc2cc(-c3ccncc3)cc(Nc3ccc(NC(=O)C4CCCCC4)cc3)c2c1            2.17

Lab note: "COc1ccccc1CCNc1nc(C)cc(NCCC(=O)Nc2ccccc2)n1" gave inhibition of 1.82

compound "COc1cccc2[nH]c(NCCCNCc3cc(Br)cc(Br)c3)nc12" , inhibition observed: 3.51
